target.under.test: Beta-secretase 1 (Homo sapiens, UniProt P56817)
Sequence (P56817 whole entry, the tested form may be a part): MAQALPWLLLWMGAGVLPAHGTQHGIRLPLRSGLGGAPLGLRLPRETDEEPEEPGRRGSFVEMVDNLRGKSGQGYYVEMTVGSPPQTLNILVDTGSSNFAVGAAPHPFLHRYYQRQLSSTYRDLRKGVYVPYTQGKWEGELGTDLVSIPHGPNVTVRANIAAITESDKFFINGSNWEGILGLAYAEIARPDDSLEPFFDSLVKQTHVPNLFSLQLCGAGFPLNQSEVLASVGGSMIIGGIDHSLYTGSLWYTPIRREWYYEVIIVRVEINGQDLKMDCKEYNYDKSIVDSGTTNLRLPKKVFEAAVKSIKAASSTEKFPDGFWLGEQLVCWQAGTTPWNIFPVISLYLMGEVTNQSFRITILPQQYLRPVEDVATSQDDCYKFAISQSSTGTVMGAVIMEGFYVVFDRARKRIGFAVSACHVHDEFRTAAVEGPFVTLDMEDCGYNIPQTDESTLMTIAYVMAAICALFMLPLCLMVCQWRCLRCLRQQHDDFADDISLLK
method.notes: Inhibition of Fc-fused BACE1 (1 to 460 residues) (unknown origin) expressed in HEK293 cells using mcaFRET peptide as substrate after 20 hrs by fluorescence assay
measurement.name: IC50 (nM)
Expressed in nM, but write only the number.

Exercise: Give reported IC50 value for `CCCN(CCC)C(=O)c1cccc(C(=O)N[C@@H](Cc2ccccc2)[C@H](O)CNC2CC2)c1`
Solution: 6300

Exercise: Give reported IC50 value for `CC(=O)N[C@@H](Cc1cc(F)cc(F)c1)[C@H](O)[C@H]1C[C@@H](OCC2CCCCC2)CN1.Cl`
Solution: 1400

Exercise: Give reported IC50 value for `CC[C@H](C)Nc1cc(C(=O)N[C@@H](Cc2ccccc2)[C@H](O)[C@H]2CCCN2)cc(S(C)(=O)=O)n1.Cl`
Solution: 5

Exercise: Give reported IC50 value for `CC(=O)N[C@@H](Cc1cc(F)cc(F)c1)[C@H](O)[C@H]1CC[C@@H](OCC2CCCCC2)CN1.Cl`
Solution: 1320
